Biological target: UniProt:P49759
Sequence (P49759 129-484 limits assumed): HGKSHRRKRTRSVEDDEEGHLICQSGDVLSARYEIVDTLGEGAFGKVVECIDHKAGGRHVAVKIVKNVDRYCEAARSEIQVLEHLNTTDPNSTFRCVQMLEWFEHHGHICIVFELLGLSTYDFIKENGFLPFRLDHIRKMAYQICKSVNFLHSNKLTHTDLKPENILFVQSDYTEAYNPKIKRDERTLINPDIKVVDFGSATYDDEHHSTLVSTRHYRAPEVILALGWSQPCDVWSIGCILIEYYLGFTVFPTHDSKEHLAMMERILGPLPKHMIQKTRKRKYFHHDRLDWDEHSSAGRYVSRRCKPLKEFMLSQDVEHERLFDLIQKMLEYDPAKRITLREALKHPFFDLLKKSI
Entries annotated with measured IC50

Simply: CNc1nc(Nc2ccc(P(C)(C)=O)cc2OC)nc2[nH]cc(C#N)c12 , UniProt:P49759, IC50 = 301 to 1000 nM

Record COc1cc(S(C)(=O)=O)ccc1Nc1nc(C2CC2)c2c(C#N)c[nH]c2n1 has UniProt:P49759 IC50 equal to 301 to 1000 nM

IC50 of O=C(c1ccc(Nc2nc(NC3CCCCC3)c3c(C(F)(F)F)c[nH]c3n2)c2c1OCCO2)N1CCOCC1 , assay on UniProt:P49759, is 301 to 1000 nM

The reported UniProt:P49759 IC50 of CC[C@@H](C)Nc1nc(Nc2ccc(P3(=O)CCN(C4CC4)CC3)cc2OC)nc2[nH]cc(C#N)c12 is < 100 nM

Entry CS(=O)(=O)CCNc1nc(Nc2ccc(C(=O)N3CCOCC3)c3c2OCC3)nc2[nH]cc(C#N)c12 , UniProt:P49759 data, IC50 value: < 100 nM

Response field IC50 (UniProt:P49759) for item CCCNc1nc(Nc2ccc(C(=O)N3CC(CO)(CO)C3)c3c2OCCO3)nc2[nH]cc(C#N)c12 : < 100 nM

More entries:
UniProt:P49759 assay, molecule COc1cc(S(C)(=O)=O)ccc1Nc1nc(NC2CC2)c2c(C#N)c[nH]c2n1 , recorded IC50 = 101 to 300 nM

I looked up COc1cc(P2(=O)CCN(C3CC3)CC2)ccc1Nc1nc(NCC2CCC2)c2c(C(F)(F)F)c[nH]c2n1 and its IC50 for UniProt:P49759 was 301 to 1000 nM

Form field, IC50 with UniProt:P49759, item COCCNc1nc(Nc2ccc(C(=O)N3CCC(N4CCOCC4)CC3)c3c2OCCO3)nc2[nH]cc(C(F)(F)F)c12 : < 100 nM
